This collection of values is drawn from PubChem BioAssay (NCI).

- System: 786-0 renal
- test-name: NCI-60 one-dose screen, 48 h (100 = growth as untreated, 0 = no growth, -100 = all killed)
- test-settings: 10 µM unless noted
- Procedure: Cells are grown in 96 well plates and exposed to the test compound for 48 hours. Compounds are tested at a single concentration, which is 10^-5 M for most compounds. The reported endpoint is percent growth (GI% or GIPRCNT), where numbers from 0 - 100% represent growth inhibition, and numbers from -100% - 0 represent cell death. For example, a value of 40 represents 60% growth inhibition. A value of 0 means no net growth occurred over the course of the experiment. […]
Compounds without any hit were thinned out: in the full panel of roughly 83,000, 20% have a hit.
Mark each entry TRUE if its growth sits below 80%, and FALSE for all others.

Task: Threshold test, growth < 80%: COc1ccc(/C(C#N)=C/c2cc(OC)c(OC)c(OC)c2)cc1
Result: TRUE

Task: Given the entry CNC(=S)NNC(=O)C1CC1 , would its reported growth be below 80%?
Result: FALSE

Task: API: query returns whether the molecule falls strictly under 80% in growth. Query: O=C(O)C1CCCN1 (stereo not given)
Result: FALSE

Task: Field: below-cutoff. Rule: recorded growth strictly less than 80%. Subject: N#C/C(=C1C=C/C(=N/O)C(Cl)=C/1)c1ccc(Cl)cc1
Result: TRUE

Task: Please state whether growth is below 80% for COc1ccc(-n2c(=O)sc3c(Cl)nc(C)nc32)c(OC)c1
Result: FALSE

Task: Consider the molecule CC(C)(C)n1cc(-c2ccnc(NCCNS(=O)(=O)c3ccc(F)cc3)c2)c(-c2cccc(O)c2)n1 . Is its growth strictly less than 80%?
Result: TRUE

Task: Is growth of NC(=O)CCCN1C/C(=C\c2ccccc2)C(=O)c2ccccc21 strictly below 80%?
Result: FALSE

Task: Field: below-cutoff. Rule: recorded growth strictly less than 80%. Subject: COC1=C(OC)C(=O)C(CCCCCCCCCC[P+](c2ccccc2)(c2ccccc2)c2ccccc2)=C(C)C1=O
Result: TRUE

Task: hey, is growth for COc1ccc(S(=O)(=O)n2cc(C(=O)C(=O)Nc3ccncc3)c3ccccc32)cc1F lower than 80% or not?
Result: FALSE

Task: growth strictly < 80% for this molecule? Cc1ccc(S(=O)(=O)Nc2c(Br)cc(Br)cc2C(N)=O)cc1
Result: FALSE

----------
- Test system: OVCAR-5 ovarian
- test-name: NCI-60 one-dose screen, 48 h (100 = growth as untreated, 0 = no growth, -100 = all killed)
- test-settings: 10 µM unless noted
About 83,000 compounds went through this panel and 20% of them were active in at least one assay; those are over-represented in the sample as a whole.
Would you mind telling me the reported growth of each entry?
Quick note: give the figure in %, leave out the unit.

Noted for O=C(NCCNc1nccc(-n2ccc3cccnc32)n1)c1ccc(C(F)(F)F)cc1 : its growth reads 106

The reported value for CCCCCCCCN(CCCCCCCC)CCCCCCNc1cc(OC)cc2cccnc12 in terms of growth is 92.4

For record COc1ccc2[nH]c(=O)c(/C=N/Nc3nc(-c4ccccc4)cs3)c(O)c2c1 the listed growth is 85.6

The measured growth associated with CC(NNC(C)c1ccccc1)c1ccccc1 (stereo not given) reads 107

Kindly note the recorded growth for COc1ccc(-c2nc(SCCC(C)C)nc(Nc3ccc(F)c(Cl)c3)c2C#N)cc1 , which is 102

Notebook: Cn1ccc(Nc2nccc(Oc3ccc(C(=O)Nc4cccc(F)c4)c(Cl)c3)n2)c1 , growth read as 87.9

Kindly note the recorded growth for C[n+]1c(/C=C/c2c(O)ccc3ccccc23)ccc2ccccc21 , which is 77.3

Quick note, growth for COc1ccc(Nc2[nH]n3c(=O)cc(-c4ccccc4)nc3c2C(=O)Nc2ccc(C)cc2)c(OC)c1 landed at 92

The reported value for NC1=C(/C(N)=N/O)C(c2ccccc2)c2ccc3ccccc3c2O1 (stereo not given) in terms of growth is 29.6

Looking up CCC(C)/C(=C\C#N)NCCCN/C(=C/C#N)C(C)CC (stereo not given) , I found its growth recorded as 102

According to the records, this molecule O=C(O)/C=C/C(=O)c1ccc(Cl)cc1 displays growth of 115

Per the record, Nc1nc(-c2ccccc2)c(CCCOc2ccc(NC(=O)CBr)cc2)c(=O)[nH]1 has growth of 104

For Cc1ccc(S(=O)(=O)n2cc(C(=O)C(=O)Nc3ccncc3)c3ccccc32)cc1 the molecule record lists growth as 57.6

Noted for O=C1C2(c3ccccc3)C(c3ccccc3)=C(c3ccccc3)C1(c1ccccc1)C1CC=CC12 (stereo not given) : its growth reads 97.9

Consider COc1ccc2[nH]c(C(=O)OCc3ccc4c(Cl)cc(Cl)c(O)c4n3)cc2c1 . Its measured growth is -71.8

Entry under test: COc1cc2c(cc1OCCCCCn1c3ccccc3c3ccccc31)N=C[C@@H]1CCCN1C2=O . Its growth was -50

Measured growth of COc1cc(/C=N\NC(=O)CN2CCN(c3cc4c(cc3F)c(=O)c(C(=O)N/N=C/c3cc(OC)c(OC)c(OC)c3)cn4C3CC3)CC2)cc(OC)c1OC : 19.6

growth for Cc1ccc2nc(-c3cc4c([nH]c5ccccc54)c(-c4ccc(F)c(F)c4)n3)[nH]c2c1 is 113

Sample CC(=O)Oc1csc(N(C(C)=O)c2cc(C(=O)O)cc(C(=O)O)c2)n1 ; growth observed: 101

Entry under test: COc1ccc(S(=O)(=O)NCCCNc2nccc(-c3c(-c4cccc([N+](=O)[O-])c4)nc4sccn34)n2)cc1 . Its growth was 98.7

Entry CC(=O)Nc1nc(N)nc(NC(C)=O)c1N=O — recorded growth = 108

The molecule Cc1c(C(=N)C(C#N)C#N)c(=N)oc2c1ccc1ccccc12 showed growth equal to 104

Consider COc1ccc(N=Cc2c(O)ccc3c2oc2cc(Cl)c(O)c(Cl)c23)cc1 . Its measured growth is 102

For COC1=C(OC)C(=O)C(CCCCCCCCCC[P+](c2ccccc2)(c2ccccc2)c2ccccc2)=C(C)C1=O the molecule record lists growth as 3.19

Entry O=C(Oc1ccccc1[N+](=O)[O-])C1CCCN1C(=O)OCc1ccccc1 (stereo not given) ; growth = 109

----------
- System: MALME-3M melanoma
- test-name: NCI-60 one-dose screen, 48 h (100 = growth as untreated, 0 = no growth, -100 = all killed)
- test-settings: 10 µM unless noted
Compounds without any hit were thinned out: in the full panel of roughly 83,000, 20% have a hit. Active and inactive are the calls of the source. The calls were made as follows: active = growth percent below 10; inactive = the rest.
endpoint-label: growth

Entry Cc1ccc(S(=O)(=O)n2cc(C(=O)C(=O)N3CCOCC3)c3ccccc32)cc1 ; growth = 91% (inactive)

Looking up C=C(C)[C@@H]1C[C@@H]2Cc3cc(F)ccc3N1O2 , I see its growth listed as 83% (inactive)

Briefly, growth measured for CC(C)(C)N1CCC1C(N)=O (stereo not drawn) : 90.3% (inactive)

Data point: CCN(CC)CCC(CNc1ccnc2cc(Cl)ccc12)c1ccc(Cl)cc1 (stereo not drawn) ; growth = -83.1% (active)

Record Cc1ccc2[nH]c(=O)c3c(c2c1)Oc1ncn2nc(-c4ccco4)nc2c1C3c1ccc(Cl)cc1 (stereo not drawn) , field growth: 96.3% (inactive)

Notebook: O=C1NN(C(=O)c2ccc(Cl)cc2)C(c2ccccc2)=N/C1=C\c1ccc(F)cc1 , growth read as 85.6% (inactive)

// growth lookup, molecule = C=C[C@@H]1C[C@@H]2Cc3c(C)cc(C)cc3N1O2 , result: 77% (inactive)

What the record says about CCC(=O)Oc1ccc(/C(=C(/C)Cc2cccc(OC)c2)c2ccc(OCCN(C)C)cc2)cc1 : growth is 100% (inactive)

----------
- System: A498 renal
- test-name: NCI-60 one-dose screen, 48 h (100 = growth as untreated, 0 = no growth, -100 = all killed)
- test-settings: 10 µM unless noted
The panel holds about 83,000 compounds, 20% with a hit somewhere; the sample as a whole holds those more often.
Doc: threshold 60% (exclusive). Items with growth beneath it return Yes; others return No.

Task: Lab log: compare recorded growth with 60%; is it strictly lower for CN(C[C@H]1Cc2c(cccc2N2CCN(c3ncccn3)CC2)CN1)[C@H]1CCCc2cccnc21 ?
Result: Yes

Task: Lab log: compare recorded growth with 60%; is it strictly lower for O=S(=O)(NCCNc1nccc(-c2c(-c3cccc(O)c3)nc3sccn23)n1)c1ccc(F)cc1 ?
Result: No

Task: is_below(growth, 60%) for Oc1ccc(Cl)cc1-c1cc(-c2ccc(F)cc2)n[nH]1 ?
Result: No

Task: Please determine if COc1ccc2c(c1)NC1=C(C(=O)OC1)C2c1cc(OC)c2c(c1)OCO2 (stereo not given) is below 60% in terms of growth.
Result: Yes

Task: # TODO verify growth < 60% strictly for this compound: CC(C)C1=CC2=C(C=O)C[C@@H]3[C@](C)(CCC[C@@]3(C)C(=O)OCC#CCN3CCCC3)[C@H]2CC1
Result: No
